Sourced from patent US5646173A

- assayed.system: 5HT2C receptor (Sus scrofa, UniProt K7GSR7)
- Construct: from tissue
- Sequence (K7GSR7 1-457): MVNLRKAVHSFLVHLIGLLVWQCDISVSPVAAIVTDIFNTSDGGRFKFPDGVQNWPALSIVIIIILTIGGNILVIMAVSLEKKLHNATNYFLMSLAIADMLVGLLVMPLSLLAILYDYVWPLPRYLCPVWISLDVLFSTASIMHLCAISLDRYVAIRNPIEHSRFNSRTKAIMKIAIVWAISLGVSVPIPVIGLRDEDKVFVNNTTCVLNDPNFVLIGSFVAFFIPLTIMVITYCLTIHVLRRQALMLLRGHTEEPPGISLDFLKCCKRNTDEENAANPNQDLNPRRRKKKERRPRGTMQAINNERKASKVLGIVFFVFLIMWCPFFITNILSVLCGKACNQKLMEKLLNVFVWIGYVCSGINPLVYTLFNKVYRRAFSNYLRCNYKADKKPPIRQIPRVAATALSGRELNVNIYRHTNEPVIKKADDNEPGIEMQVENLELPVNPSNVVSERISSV
- experiment.description: 3H-mesulergine binding assay (Method I b)
- assay.context: 5HT2C, 3H-mesulergine, Method I; read-out: IC50, test method b
recorded.metric: IC50 (nM)
Give your result in nM as a bare value.

Solved entries:
CC(N)Cn1ccc2c1-c1ccccc1SC2 (racemic) [Example 64]: 85.4
COc1ccc2c(c1)-c1c(ccn1C(C)(C)N)CO2 [Example 54]: 116
CC(N)Cn1ccc2c1-c1ccccc1OC2 (racemic) [Example 34]: 107

Continue with the compound presented below.
Req: Entry Clc1cccc(N2CCNCC2)c1 [mCPP, reference compound] , system 5HT2C receptor (Sus scrofa, UniProt K7GSR7): what IC50 was measured?
Resp: 53
